B1: library; numbered along this chain (parent)
chain: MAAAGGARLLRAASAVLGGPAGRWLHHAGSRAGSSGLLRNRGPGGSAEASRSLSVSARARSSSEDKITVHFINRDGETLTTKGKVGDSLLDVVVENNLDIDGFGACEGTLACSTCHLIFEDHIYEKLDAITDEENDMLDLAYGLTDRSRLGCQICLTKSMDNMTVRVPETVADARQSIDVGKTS

variants of: B1; experiment: scaled log2 fold change in cell abundance, elesclomol vs control (0 = silent mean, 1 = nonsense mean) (scaled log2 ratio); higher = higher viability under elesclomol (loss of FDX1 cuproptosis function); details: with HEK293T FDX1 KO; elesclomol 40 nM; glucose 10 mM; 11 days;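 further: variant abundance is its share of total variant reads in each endpoint sample, from next-generation sequencing of the integrated ORF PCR-amplified out of genomic DNA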
recorded-endpoint: scaled log2 fold change
Give the figure only, with no unit attached.

As a guide, the following entries are already answered.
- alteration: "S148N"
  scaled log2 fold change: 0.397
- alteration: "L110Y"
  scaled log2 fold change: 0.0828
- alteration: "T131D"
  scaled log2 fold change: -0.23

Query block: Which measured scaled log2 fold change value corresponds to G6V ?
Result block: 0.974

Query block: Which measured scaled log2 fold change value corresponds to G6Y ?
Result block: 0.639

Query block: Which measured scaled log2 fold change value corresponds to S52D ?
Result block: 0.946

Query block: Which measured scaled log2 fold change value corresponds to P20W ?
Result block: -0.657

Query block: Which measured scaled log2 fold change value corresponds to N40P ?
Result block: 0.374

Query block: Which measured scaled log2 fold change value corresponds to S184L ?
Result block: 0.57

Query block: Which measured scaled log2 fold change value corresponds to V180H ?
Result block: 1.19

Query block: Which measured scaled log2 fold change value corresponds to G18C ?
Result block: 0.923

Query block: Which measured scaled log2 fold change value corresponds to A47H ?
Result block: 1.05

Query block: Which measured scaled log2 fold change value corresponds to A28V ?
Result block: -0.408

Query block: Which measured scaled log2 fold change value corresponds to A21H ?
Result block: -0.00969

Query block: Which measured scaled log2 fold change value corresponds to R39L ?
Result block: -0.141

Query block: Which measured scaled log2 fold change value corresponds to V180G ?
Result block: -0.341

Query block: Which measured scaled log2 fold change value corresponds to D128F ?
Result block: 0.338

Query block: Which measured scaled log2 fold change value corresponds to E95K ?
Result block: -0.042

Query block: Which measured scaled log2 fold change value corresponds to G45P ?
Result block: -0.0345

Query block: Which measured scaled log2 fold change value corresponds to D128K ?
Result block: -0.0961

Query block: Which measured scaled log2 fold change value corresponds to D75G ?
Result block: 0.0557

Query block: Which measured scaled log2 fold change value corresponds to L150M ?
Result block: -0.103

Query block: Which measured scaled log2 fold change value corresponds to V55N ?
Result block: 0.815

Query block: Which measured scaled log2 fold change value corresponds to H116C ?
Result block: 0.973

Query block: Which measured scaled log2 fold change value corresponds to L110D ?
Result block: 0.687

Query block: Which measured scaled log2 fold change value corresponds to H70A ?
Result block: -0.104

Query block: Which measured scaled log2 fold change value corresponds to A105G ?
Result block: -0.152

Query block: Which measured scaled log2 fold change value corresponds to R8L ?
Result block: -0.46

Query block: Which measured scaled log2 fold change value corresponds to G181H ?
Result block: 0.112
